These measurements were taken from ChEMBL document CHEMBL3627714.

tested on: Rattus norvegicus; test: Dose normalized AUC in rat at 2 mg/kg, po; type: ADME, organism-based; details: in vivo
measuredParameter: AUC/dose (µM·h/mg/kg)
// note: answer is a bare numeric in µM·h/mg/kg

[Q] // AUC/dose lookup, key: Cc1ncn(-c2cc(Cl)c(C(=O)NC[C@@H](c3cccc(F)c3)c3nc4c(C)cc(Cl)cc4[nH]3)c(Cl)c2)n1
[A] 4.36

[Q] Which measured AUC/dose value corresponds to Cc1ncn(-c2cc(Cl)c(C(=O)NC[C@@H](c3cccc(F)c3)c3ccc4[nH]c(C)nc4c3)c(Cl)c2)n1 ?
[A] 0.097

[Q] Query: AUC/dose; subject: Cc1ncn(-c2cc(Cl)c(C(=O)NC[C@@H](c3cccc(F)c3)c3nc4ccc(Cl)cc4[nH]3)c(Cl)c2)n1
[A] 1.74

[Q] AUC/dose for Cc1ncn(-c2cc(Cl)c(C(=O)NC[C@@H](c3cccc(F)c3)c3nc4c(F)ccc(C)c4c(=O)[nH]3)c(Cl)c2)n1 ?
[A] 0.284

[Q] Looking for the measured AUC/dose of COc1cc2nc([C@@H](CNC(=O)c3c(Cl)cc(-n4cnc(C)n4)cc3Cl)c3cccc(F)c3)[nH]c2cc1Cl , can you help?
[A] 0.056
